tested on: Danio rerio larvae Tg(actc1b:ZsGreen-LC3), 3 dpf; assay: LC3 puncta relative area vs vehicle, with NH4Cl (autophagic flux) (log2 fold change); higher = more autophagy; details: 10 µM; treatment time 16 h; NH4Cl: + 100 mM, 4 h
Counter-ions that a name gives are not always drawn.
Known LC3 puncta (log2) of a selection of molecules
Provide a numeric answer; units are not to be included.

Here is how some molecules turned out for LC3 puncta (log2).
{"Molecule": "N=C(N)S/C=C\\C(=O)O [ZAPA sulfate]", "System tested": "Danio rerio larvae Tg(actc1b:ZsGreen-LC3), 3 dpf", "LC3 puncta (log2)": 0.0813}
{"Molecule": "CC(=O)N[C@@H](Cc1c[nH]c2ccccc12)C(=O)OCc1cc(C(F)(F)F)cc(C(F)(F)F)c1", "System tested": "Danio rerio larvae Tg(actc1b:ZsGreen-LC3), 3 dpf", "LC3 puncta (log2)": 0.108}
{"Molecule": "O=C1c2ccccc2CCC1CNCCc1ccc(O)cc1 (stereo not given) [HEAT hydrochloride]", "System tested": "Danio rerio larvae Tg(actc1b:ZsGreen-LC3), 3 dpf", "LC3 puncta (log2)": 0.616}
{"Molecule": "O=C(O)c1cc(=O)c2ccccc2[nH]1 [Kynurenic acid]", "System tested": "Danio rerio larvae Tg(actc1b:ZsGreen-LC3), 3 dpf", "LC3 puncta (log2)": -0.156}

Which LC3 puncta (log2) is listed for CCCCCCN(CCCCCC)C(=O)Cc1c(-c2ccc(F)cc2)[nH]c2ccccc12 ?
0.295

----------
test system: Danio rerio larvae Tg(actc1b:ZsGreen-LC3), 3 dpf; experiment: LC3 puncta relative area vs vehicle, with NH4Cl (autophagic flux) (log2 fold change); higher = more autophagy; details: 10 µM; treatment time 16 h; NH4Cl: + 100 mM, 4 h
Counter-ions that a name gives are not always drawn.
Known LC3 puncta (log2) of a selection of molecules
Provide a numeric answer; units are not to be included.

{"Molecule": "O=S(=O)(c1cccc2cnccc12)N1CCCNCC1 [Fasudil hydrochloride]", "LC3 puncta (log2)": 0.726}

Which LC3 puncta (log2) is listed for O=[N+]([O-])c1cccc2c(Br)[nH]nc12 [3-Bromo-7-nitroindazole] ?
0.697

Which LC3 puncta (log2) is listed for O=C1CN(/N=C/c2ccc(-c3ccc([N+](=O)[O-])cc3)o2)C(=O)N1 [Dantrolene, sodium salt] ?
0.404

Which LC3 puncta (log2) is listed for c1ccc2nc(C3=NCCN3)cnc2c1 [BU 239 hydrochloride] ?
0.0532

Which LC3 puncta (log2) is listed for CC[C@@H]1C(=O)OC[C@@H]1Cc1cncn1C [Pilocarpine hydrochloride] ?
0.652

Which LC3 puncta (log2) is listed for O=[N+]([O-])c1cc2nc(O)c(O)nc2cc1[N+](=O)[O-] ?
0.11

Which LC3 puncta (log2) is listed for C=C1C(=O)O[C@H]2[C@H]1CC/C(C)=C/CC[C@@]1(C)O[C@@H]21 [Parthenolide] ?
0.46

Which LC3 puncta (log2) is listed for CC(C)[N+]1(C)[C@@H]2CC[C@H]1C[C@@H](OC(=O)C(CO)c1ccccc1)C2 (some centres undefined) [Ipratropium bromide] ?
0.284

Which LC3 puncta (log2) is listed for NC(=O)OCC(COC(N)=O)c1ccccc1 [Felbamate] ?
-0.777

----------
system: Danio rerio larvae Tg(actc1b:ZsGreen-LC3), 3 dpf; assay: LC3 puncta relative area vs vehicle, with NH4Cl (autophagic flux) (log2 fold change); higher = more autophagy; settings: 10 µM; treatment time 16 h; NH4Cl: + 100 mM, 4 h
Structures can show the parent of a compound that is named as a salt.
Property measured: LC3 puncta (log2)

{"Compound": "CCN(CC)CCOC(=O)C1(c2ccc([N+](=O)[O-])cc2)CCCC1 [Nitrocaramiphen hydrochloride]", "Result": 0.825}
{"Compound": "NC(=O)c1cccc(N)c1 [3-Aminobenzamide]", "Result": 0.645}
{"Compound": "c1ccc(N2CCN(CCCOc3ccc4c(c3)OCO4)CC2)cc1 [BP 554 maleate]", "Result": 0.422}
{"Compound": "C1COC(NC(C2CC2)C2CC2)=N1 [Rilmenidine hemifumarate]", "Result": 0.305}
{"Compound": "CC(C(O)c1ccc(O)cc1)N1CCC(Cc2ccccc2)CC1 (stereo not given) [Ifenprodil hemitartrate]", "Result": 0.445}
{"Compound": "COc1cc2nc(N3CCN(C(=O)c4ccco4)CC3)nc(N)c2cc1OC [Prazosin hydrochloride]", "Result": 0.478}

Which LC3 puncta (log2) is listed for CC(C)NCC(O)c1ccc2ccccc2c1 (stereo not given) [Pronethalol hydrochloride] ?
0.862

Which LC3 puncta (log2) is listed for NCC(O)(CS(=O)(=O)O)c1ccc(Cl)cc1 (stereo not given) [2-Hydroxysaclofen] ?
0.449

Which LC3 puncta (log2) is listed for O=C(O)c1cccnc1C(=O)O [Quinolinic acid] ?
0.453

Which LC3 puncta (log2) is listed for CC(Cc1ccc(O)c(O)c1)(NN)C(=O)O [(S)-(-)-Carbidopa] ?
0.219

----------
tested on: Danio rerio larvae Tg(actc1b:ZsGreen-LC3), 3 dpf; experiment: LC3 puncta relative area vs vehicle, without NH4Cl (log2 fold change); higher = more autophagosomes; conditions: 10 µM; treatment time 16 h; NH4Cl: none
Structures can show the parent of a compound that is named as a salt.
Property measured: LC3 puncta (log2)
Provide a numeric answer; units are not to be included.

{"Compound": "O=C1c2ccccc2CCC1CNCCc1ccc(O)cc1 (stereo not given) [HEAT hydrochloride]", "LC3 puncta (log2)": 0.103}
{"Compound": "COc1cc2c(CCNC(C)=O)c[nH]c2cc1Cl", "LC3 puncta (log2)": -0.363}
{"Compound": "C=C1C(=O)O[C@H]2[C@H]1CC/C(C)=C/CC[C@@]1(C)O[C@@H]21 [Parthenolide]", "LC3 puncta (log2)": 0.0168}
{"Compound": "CC(C)NCC(O)c1ccc2ccccc2c1 (stereo not given) [Pronethalol hydrochloride]", "LC3 puncta (log2)": 0.437}

// next item, LC3 puncta (log2) requested
Which LC3 puncta (log2) is listed for COc1ccc2[nH]c(I)c(CCNC(C)=O)c2c1 ?
0.515

----------
tested on: Danio rerio larvae Tg(actc1b:ZsGreen-LC3), 3 dpf; experiment: LC3 puncta relative area vs vehicle, with NH4Cl (autophagic flux) (log2 fold change); higher = more autophagy; details: 10 µM; treatment time 16 h; NH4Cl: + 100 mM, 4 h
Counter-ions that a name gives are not always drawn.
Known LC3 puncta (log2) of a selection of compounds
Provide a numeric answer; units are not to be included.

Which LC3 puncta (log2) is listed for Nc1cc(N2CCCCC2)nc(N)[n+]1[O-] [Minoxidil] ?
0.501

Which LC3 puncta (log2) is listed for O=C(OCCN1CCOCC1)C1(c2ccccc2)CCCCC1 [PRE-084 hydrochloride] ?
0.339

Which LC3 puncta (log2) is listed for CC(C)(C)NC[C@H](O)COc1nsnc1N1CCOCC1 [(S)-Timolol maleate] ?
0.785

Which LC3 puncta (log2) is listed for CCCCCCN(CCCCCC)C(=O)Cc1c(-c2ccc(Cl)cc2)[nH]c2ccc(Cl)cc12 ?
0.58

Which LC3 puncta (log2) is listed for COc1cc(C(=O)OCCCN2CCCN(CCCOC(=O)c3cc(OC)c(OC)c(OC)c3)CC2)cc(OC)c1OC [Dilazep] ?
0.426

Which LC3 puncta (log2) is listed for CC(N)(Cc1ccc(O)c(O)c1)C(=O)O (configuration not stated) ?
0.209

Which LC3 puncta (log2) is listed for CC(=O)N[C@@H](CC(=O)N[C@@H](CCC(=O)O)C(=O)O)C(=O)O [Spaglumic acid] ?
0.103

Which LC3 puncta (log2) is listed for O=S(=O)(c1cccc2c(Cl)cccc12)N1CCCNCC1 [ML 9 hydrochloride] ?
0.383

----------
test system: Danio rerio larvae Tg(actc1b:ZsGreen-LC3), 3 dpf; assay: LC3 puncta relative area vs vehicle, with NH4Cl (autophagic flux) (log2 fold change); higher = more autophagy; settings: 10 µM; treatment time 16 h; NH4Cl: + 100 mM, 4 h
Structures can show the parent of a compound that is named as a salt.
Property measured: LC3 puncta (log2)
Provide a numeric answer; units are not to be included.

{"Compound": "NC(=O)CCCCn1ccc(NC(N)=NCC(F)(F)F)n1", "LC3 puncta (log2)": 0.72}
{"Compound": "COc1ccc(CCN(C)CCc2ccc(OC)c(OC)c2)cc1OC [YS-035 hydrochloride]", "LC3 puncta (log2)": 0.374}
{"Compound": "COCCOC(=O)C1=C(C)NC(C)=C(C(=O)OC(C)C)C1c1cccc([N+](=O)[O-])c1 (centres undefined)", "LC3 puncta (log2)": 0.885}

Which LC3 puncta (log2) is listed for CCC(C)N(C)C(=O)c1cc2ccccc2c(-c2ccccc2Cl)n1 (centres undefined) ?
0.363

Hey, just so you know, these numbers are from the supplement of paper PMC12532568.
